# System: LCLC-97TM1
# PROTOCOL_NOTES: relative viability (nuclei count vs DMSO), 5 days (fraction); higher = more cells survive
# STUDY_CONDITIONS: first compound 0.1265 µM
PROPERTY_NAME: relative viability
Reply with the value as a number alone.

- MOLECULE: "C[C@@H]1CN(CC(=O)Nc2ccc3c(c2)Cc2cccc(-c4cc(=O)cc(N5CCOCC5)o4)c2S3)C[C@H](C)O1 + CCNC(=O)c1noc(-c2cc(C(C)C)c(O)cc2O)c1-c1ccc(CN2CCOCC2)cc1 [Luminespib] (partner 0.01 µM)"
  relative viability: 0.828
- MOLECULE: "Clc1ccc(Nc2nnc(Cc3ccncc3)c3ccccc23)cc1 [Vatalanib] + COc1cc2c(Oc3ccc(NC(=O)C4(C(=O)Nc5ccc(F)cc5)CC4)cc3F)ccnc2cc1OCCCN1CCOCC1 [Foretinib] (partner 0.25 µM)"
  relative viability: 0.833
- MOLECULE: "COc1cc(N2CCC(C(N)=O)CC2)ccc1Nc1nc(N)c(Cl)c(Nc2ccccc2S(=O)(=O)C(C)C)n1 [HG-5-88-01] + CC(C)C[C@H](NC(=O)[C@H](Cc1ccccc1)NC(=O)c1cnccn1)B(O)O [Bortezomib] (partner 0.002 µM)"
  relative viability: 0.313

Problem: Requested read-out: relative viability. Entry: COc1cc(N2CCC(C(N)=O)CC2)ccc1Nc1nc(N)c(Cl)c(Nc2ccccc2S(=O)(=O)C(C)C)n1 [HG-5-88-01] + NC(=O)Nc1cc(-c2cccc(F)c2)sc1C(=O)N[C@H]1CCCNC1 [AZD7762] (partner 0.2 µM)
Result: 0.262

###

# System: NCI-H650
# PROTOCOL_NOTES: relative viability (nuclei count vs DMSO), 5 days (fraction); higher = more cells survive
# STUDY_CONDITIONS: first compound 0.04 µM
PROPERTY_NAME: relative viability
Reply with the value as a number alone.

- COMPOUND: "C[C@@H]1CN(CC(=O)Nc2ccc3c(c2)Cc2cccc(-c4cc(=O)cc(N5CCOCC5)o4)c2S3)C[C@H](C)O1 + COc1cc2c(Oc3ccc(NC(=O)C4(C(=O)Nc5ccc(F)cc5)CC4)cc3F)ccnc2cc1OCCCN1CCOCC1 [Foretinib] (partner 0.25 µM)"
  TESTED_SYSTEM: "NCI-H650"
  relative viability: 0.993

Problem: Requested read-out: relative viability. Entry: Clc1ccc(Nc2nnc(Cc3ccncc3)c3ccccc23)cc1 [Vatalanib] + C[C@@H](Oc1cc(-c2cnn(C3CCNCC3)c2)cnc1N)c1c(Cl)ccc(F)c1Cl [Crizotinib] (partner 1 µM)
Result: 0.726

Problem: Requested read-out: relative viability. Entry: Clc1ccc(Nc2nnc(Cc3ccncc3)c3ccccc23)cc1 [Vatalanib] + O=C(CCCCCCC(=O)Nc1ccccc1)NO [Vorinostat] (partner 1 µM)
Result: 0.397

Problem: Requested read-out: relative viability. Entry: Clc1ccc(Nc2nnc(Cc3ccncc3)c3ccccc23)cc1 [Vatalanib] + CC(=O)Nc1cccc(-n2c(=O)n(C3CC3)c(=O)c3c(Nc4ccc(I)cc4F)n(C)c(=O)c(C)c32)c1 [Trametinib] (partner 0.02 µM)
Result: 0.941

Problem: Requested read-out: relative viability. Entry: C[C@@H]1CN(CC(=O)Nc2ccc3c(c2)Cc2cccc(-c4cc(=O)cc(N5CCOCC5)o4)c2S3)C[C@H](C)O1 + CC(=O)Nc1cccc(-n2c(=O)n(C3CC3)c(=O)c3c(Nc4ccc(I)cc4F)n(C)c(=O)c(C)c32)c1 [Trametinib] (partner 0.02 µM)
Result: 0.954

Problem: Requested read-out: relative viability. Entry: COc1cc(N2CCC(C(N)=O)CC2)ccc1Nc1nc(N)c(Cl)c(Nc2ccccc2S(=O)(=O)C(C)C)n1 [HG-5-88-01] + CS(=O)(=O)CCNCc1ccc(-c2ccc3ncnc(Nc4ccc(OCc5cccc(F)c5)c(Cl)c4)c3c2)o1 [Lapatinib] (partner 2 µM)
Result: 0.962

Origin of measurements: the supplement of paper PMC10307832
